# credit: the supplement of paper PMC9233669

# Test system: biotinyl-Phe-oxazolone
# Measurement description: self-aminoacylation, catalytic enhancement (BFO) (fold over background); higher = more active; k-Seq, kA / k0A0; sequences stand for … in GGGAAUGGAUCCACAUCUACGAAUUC…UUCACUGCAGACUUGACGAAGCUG
This sample holds only a part of the variants without activity.
Catalogue of self-aminoacylation values
Number only, no unit.

Solved entries (count: 2):
1) CCACACUUCAAGCAAGCUGUC [Fam1B.1 aminoacylation ribozyme variant]; 0.716
2) AUUACCCUGGUCAUCGAGAGU [Fam2.1 aminoacylation ribozyme variant]; 1.79

**Query** # assay system biotinyl-Phe-oxazolone: give self-aminoacylation of AUUCACCCAGGUCAUCGGGGG [Fam2.2 aminoacylation ribozyme variant]
**Result** 11.7

**Query** Recall the reported self-aminoacylation of CCACUCUUCGAGCAAUCGGUC [Fam1B.1 aminoacylation ribozyme variant] when tested on biotinyl-Phe-oxazolone.
**Result** 0.996

----------
# System: biotinyl-Phe-oxazolone
# Measurement description: self-aminoacylation, catalytic enhancement (BFO) (fold over background); higher = more active; k-Seq, kA / k0A0; sequences stand for … in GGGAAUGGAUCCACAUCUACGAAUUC…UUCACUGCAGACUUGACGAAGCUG
This sample holds only a part of the variants without activity.
Recorded self-aminoacylation, one value per entry.
The answer should be a number; do not append a unit.

**Query** Under biotinyl-Phe-oxazolone: report self-aminoacylation of CAACUUCAAACAAUCUGUCUG [Fam1A.1 aminoacylation ribozyme variant] .
**Result** 4.35

----------
Each item that follows carries a reported self-aminoacylation.
# System: biotinyl-Val-oxazolone
# Measurement description: self-aminoacylation, catalytic enhancement (BVO) (fold over background); higher = more active; k-Seq, kA / k0A0; sequences stand for … in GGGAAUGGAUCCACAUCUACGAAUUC…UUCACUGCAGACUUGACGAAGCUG
Fewer inactive variants are shown than the library holds.
Could you keep your reply to the number by itself?

1) AAGUUUGCUAAAAGUCUCAAG [Fam3.1 aminoacylation ribozyme variant]; 0.996
2) AUUCAACUAGGUCAUCGGGUC [Fam2.2 aminoacylation ribozyme variant]; 0.979
3) CUACUUGAAACAACCGGUCUG [Fam1A.1 aminoacylation ribozyme variant]; 1.01

**Query** Name the recorded self-aminoacylation of the sequence listed here: CUACUUCAAUUAAUCGGUCUG [Fam1A.1 aminoacylation ribozyme variant]
**Result** 0.985

----------
Listed below: self-aminoacylation values for each entry.
# Tested on: biotinyl-Ile-oxazolone
# Measurement description: self-aminoacylation, catalytic enhancement (BIO) (fold over background); higher = more active; k-Seq, kA / k0A0; sequences stand for … in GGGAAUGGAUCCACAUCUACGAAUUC…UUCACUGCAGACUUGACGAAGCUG
Variants at the floor of the assay were thinned out.
Number only, no unit.

Here are 3 sequences together with their reported answers.
1) AUGACCUUGGUCAUCGAGUGA [Fam2.1 aminoacylation ribozyme variant]; 3.22
2) ACACACCUAGGUCAUCGGGUG [Fam2.2 aminoacylation ribozyme variant]; 2.98
3) AUAACCCAGGUCAUCGAGUGA [Fam2.1 aminoacylation ribozyme variant]; 2.67

Pending sequence:
**Query** Answer with reported self-aminoacylation of AUUACCCAGGUCUUCGAGUGA [Fam2.1 aminoacylation ribozyme variant]
**Result** 3.65

----------
# Test system: biotinyl-Val-oxazolone
# Measurement description: self-aminoacylation, catalytic enhancement (BVO) (fold over background); higher = more active; k-Seq, kA / k0A0; sequences stand for … in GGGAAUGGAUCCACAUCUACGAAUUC…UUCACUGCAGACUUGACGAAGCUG
Variants at the floor of the assay were thinned out.
Rule: 1.0 for self-aminoacylation not less than 3, 0.0 for anything less.

1) CUCCUUCAAACAAGCGGUCUG [Fam1A.1 aminoacylation ribozyme variant]; 0.0

**Query** I'd appreciate it if you could say whether UAUUUUGCUAAUAGUCGCAAG [Fam3.1 aminoacylation ribozyme variant] has self-aminoacylation at least equal to 3.
**Result** 0.0

**Query** Does CCACAUCUCAAGCAAUCGGUC [Fam1B.1 aminoacylation ribozyme variant] have a reported self-aminoacylation of at least 3?
**Result** 0.0

**Query** In plain terms: is recorded self-aminoacylation at least 3 for CCACAGUUCAAGCAAUCGUUC [Fam1B.1 aminoacylation ribozyme variant] ?
**Result** 0.0

**Query** Determine whether measured self-aminoacylation meets or exceeds 3 for AUAACCCGGGUCAUCGAGUGA [Fam2.1 aminoacylation ribozyme variant]
**Result** 1.0

**Query** Check this sequence for self-aminoacylation at or above 3: GUACUUCAAAAAAUCGGUCUG [Fam1A.1 aminoacylation ribozyme variant]
**Result** 0.0

**Query** Hello, I need to know if AUUACCUUGUUCAUCGAGUGA [Fam2.1 aminoacylation ribozyme variant] has measured self-aminoacylation not below 3. Thanks!
**Result** 1.0

**Query** Dear colleague, could you confirm whether GUUACCCUGGUCAUCGAGGGA [Fam2.1 aminoacylation ribozyme variant] has self-aminoacylation at or above 3?
**Result** 0.0

**Query** // inclusive: self-aminoacylation at least 3? input: AUUCAUCUAGGUCAUCGGGUC [Fam2.2 aminoacylation ribozyme variant]
**Result** 0.0

**Query** Quick check, self-aminoacylation >= 3? AAACUUGCUAAUAGUCGCAAG [Fam3.1 aminoacylation ribozyme variant]
**Result** 0.0

**Query** Hi team, for CUUAACCUAGGUCAUCGGGUG [Fam2.2 aminoacylation ribozyme variant] , is the recorded self-aminoacylation at or above 3?
**Result** 0.0

**Query** Decide: is the reported value of self-aminoacylation for AUUAACCUAGGUCAUUGGGUG [Fam2.2 aminoacylation ribozyme variant] equal to or greater than 3?
**Result** 0.0

**Query** Could you verify whether the entry CUUACCCUGGUCAUCGACUGA [Fam2.1 aminoacylation ribozyme variant] shows self-aminoacylation of no less than 3?
**Result** 0.0

**Query** Could you tell me if the measured self-aminoacylation of CCACACUUCAUGCAAUCGGCC [Fam1B.1 aminoacylation ribozyme variant] reaches 3 or more?
**Result** 0.0

**Query** I'd appreciate it if you could say whether CUACUUCAAAGAAUCAGUCUG [Fam1A.1 aminoacylation ribozyme variant] has self-aminoacylation at least equal to 3.
**Result** 0.0

**Query** Please indicate if the recorded self-aminoacylation for AAGUUUGCGAAUAGUCACAAG [Fam3.1 aminoacylation ribozyme variant] meets or exceeds 3.
**Result** 0.0

----------
The reader will find reported self-aminoacylation values listed item by item below.
# Test system: biotinyl-Trp-oxazolone
# Measurement description: self-aminoacylation, catalytic enhancement (BWO) (fold over background); higher = more active; k-Seq, kA / k0A0; sequences stand for … in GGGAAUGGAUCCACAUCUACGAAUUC…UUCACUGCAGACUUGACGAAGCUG
Fewer inactive variants are shown than the library holds.

1) CUACUUCAAAAAAUCGAUCUG [Fam1A.1 aminoacylation ribozyme variant]; 0.604
2) AUGACCCUGGUCGUCGAGUGA [Fam2.1 aminoacylation ribozyme variant]; 0.916
3) CUGCUUCAAACAAUCGGUCCG [Fam1A.1 aminoacylation ribozyme variant]; 39.6
4) AAGUUUGCUAAUAGUCGUAAC [Fam3.1 aminoacylation ribozyme variant]; 0.778
5) CCACACUCCAAGCACUCGGUC [Fam1B.1 aminoacylation ribozyme variant]; 0.831

**Query** Quickly give me recorded self-aminoacylation for CUACCGCAAACAAUCGGUCUG [Fam1A.1 aminoacylation ribozyme variant]
**Result** 0.689

**Query** Report measured self-aminoacylation; entry is AAGUUUCCUAAGAGUCGCAAG [Fam3.1 aminoacylation ribozyme variant]
**Result** 0.936

----------
# System: biotinyl-Trp-oxazolone
# Measurement description: self-aminoacylation, catalytic enhancement (BWO) (fold over background); higher = more active; k-Seq, kA / k0A0; sequences stand for … in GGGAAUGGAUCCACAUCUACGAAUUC…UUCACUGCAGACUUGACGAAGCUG
Fewer inactive variants are shown than the library holds.
Could you please classify the records by self-aminoacylation using these ranges: bottom bin = under 0.8, middle bin = from 0.8 up to 2, top bin = 2 and over

1) UAGUUUGCUAAUAGUGGCAAG [Fam3.1 aminoacylation ribozyme variant]; bottom bin
2) CAACUUCAAACAAGCGGUCUG [Fam1A.1 aminoacylation ribozyme variant]; middle bin
3) AUUCAACUAGGUCAUCGGGUU [Fam2.2 aminoacylation ribozyme variant]; middle bin
4) AAGUUUGCUAAUACACGCAAG [Fam3.1 aminoacylation ribozyme variant]; bottom bin

**Query** Which class is correct for the following sequence? CCACAAUUCAAGCAAGCGGUC [Fam1B.1 aminoacylation ribozyme variant]
**Result** bottom bin

**Query** Quick check: band for AAGUUGGUUAAUAGUCGCAAG [Fam3.1 aminoacylation ribozyme variant]
**Result** middle bin

**Query** Class for AAGUUUGCUAAUAAUCGCAUG [Fam3.1 aminoacylation ribozyme variant] ?
**Result** middle bin

**Query** Entry AAGUUUUCGAAUAGUCGCAAG [Fam3.1 aminoacylation ribozyme variant] belongs to which category?
**Result** top bin

**Query** Which band does AUUCACAUAGUUCAUCGGGUG [Fam2.2 aminoacylation ribozyme variant] fall in?
**Result** top bin

**Query** Sort into band: AGUCACCUACGUCAUCGGGUG [Fam2.2 aminoacylation ribozyme variant]
**Result** top bin

**Query** Class for AUUACGCUGGUCAUCGAUUGA [Fam2.1 aminoacylation ribozyme variant] ?
**Result** middle bin
